tested on: MDA-MB-435; test: NCI tumour cell line growth inhibition, 48 h
The source made the active and inactive calls. Cut-off read from the data, not from the text of the source: active = GI50 up to about 1.1 µM and inactive = higher. Where a SMILES comes first, the peptide text is derived from it. [ ]: non-standard residue; d: D form. The star is where a group is joined. ξ: configuration not given here. NMeF = CN[C@@H](Cc1ccccc1)C(=O)O; NMeV = CN[C@H](C(=O)O)C(C)C; ξNMeN = CNC(CC(N)=O)C(=O)O; NMeA = CN[C@@H](C)C(=O)O; ξNMeV = CNC(C(=O)O)C(C)C; Boc = CC(C)(C)OC(=O)*
Write down the outcome that applies. Available outcomes: 1 (active), 0 (inactive)

What classification did COc1cc2cc(C(=O)N3CC(CCl)c4ccccc43)[nH]c2c(OC)c1OC (centres undefined) end up with in this test?
0

What classification did CC(=O)OC1OC(c2ccoc2)C[C@@]12C1CCC3O[C@]3(C)[C@]1(C)C[C@H](OC(C)=O)[C@H]2C (some centres undefined) end up with in this test?
0

What classification did O=c1oc(-c2ccc(O)cc2)cc2cc(O)ccc12 end up with in this test?
0

What classification did COC(=O)[C@H](C)N(C)C(=O)C(CC(N)=O)N(C)C(=O)[C@H](Cc1ccccc1)N(C)C(=O)[C@@H]1CCCN1C(=O)[C@H](C(C)C)N(C)C(=O)C(C(C)C)N(C)C(=O)[C@@H](NC(=O)OC(C)(C)C)C(C)C (some centres undefined) (Boc-V[ξNMeV][NMeV]P[NMeF][ξNMeN][NMeA]-OMe) end up with in this test?
0

What classification did NC(=S)N1N=C(c2ccc3c(c2)CCC3)CC1c1ccccc1 (centres undefined) end up with in this test?
0

What classification did COc1cc(C2c3cc4c(cc3OC(N3CCCCC3)C2C)OCO4)cc(OC)c1OC (centres undefined) end up with in this test?
1

What classification did CCOC(=O)C1C(=O)CC(C)(O)C(C(=O)OCC)C1c1ccc(OC)cc1 (centres undefined) end up with in this test?
0

What classification did CC[C@H](C)C1=C(O)[N@+]2([O-])Oc3ccc(-c4c(O)c(O)c(-c5ccc(O)cc5)c(OC(C)=O)c4OC(C)=O)cc3O[C@]2([C@@H](C)CC)C(=O)N1O end up with in this test?
0

What classification did C=C=C(C)C(=O)N(C(C)C)C(C)C end up with in this test?
0

What classification did CCC(=O)Nc1ccc(N2C(=O)/C(=C/c3ccc(O)c(OC)c3)N=C2c2ccccc2)cc1 end up with in this test?
0

What classification did Cc1c2cc[n+](C)cc2c(C)c2c1[nH]c1ccc(O)cc12 [ELLIPTINIUM ACETATE] end up with in this test?
0

What classification did Cc1cc(C)n(C(=O)CSc2nnc(SCC(=O)n3nc(C)cc3C)s2)n1 end up with in this test?
0

What classification did COCCOC1=C(Cl)C(=O)c2c(O)ccc(O)c2C1=O end up with in this test?
1

What classification did C=CCN1C(=O)CS/C1=N/NC(=O)C(O)(c1ccccc1)c1ccccc1 end up with in this test?
0
